# Test system: IGROV-1
# PROTOCOL TEXT: NCI tumour cell line growth inhibition, 48 h
Calls of active or inactive are those of the source. Rule as the data show it: active = GI50 up to about 1.1 µM and inactive = higher.
QUANTITY KIND: GI50

C=CCn1c(-c2ccc([N+](=O)[O-])cc2)csc1=N 59 µM (inactive)
CN(C)CCNC(=O)c1cccc2nc3c(Cl)cccc3nc12 6.41 µM (inactive)

`Cn1c(-c2ccccc2)cc2c3ccsc3c3ccsc3c21` on IGROV-1 gives GI50 = > 100 µM (inactive)

----------
# Tested on: A498
# PROTOCOL TEXT: NCI tumour cell line growth inhibition, 48 h
Calls of active or inactive are those of the source. Rule as the data show it: active = GI50 up to about 1.1 µM and inactive = higher.
Select the correct class. Options are active, inactive and nothing else.

MOLECULE	GROUP
CC(=O)OC(Cn1cncn1)(Cn1cncn1)c1ccc(Cl)cc1Cl	inactive
S=C=NCc1ccccc1 [BENZYL ISOTHIOCYANATE]	inactive

input: # lookup: test call for CC(=O)OC1COC(n2c(=S)n(-c3ccc(C)cc3)c(=O)c3ccccc32)C(OC(C)=O)C1OC(C)=O (stereo not drawn)
output: inactive

input: // param item: `O=S(=O)(N/N=C/c1cccc(/C=N/NS(=O)(=O)c2ccccc2)c1)c1ccccc1` ; yields the recorded call
output: inactive

input: What did the test return for `c1ccc2c(NCCCCCCNc3c4ccccc4nc4ccccc34)c3ccccc3nc2c1` ?
output: inactive

input: Hi team, can someone confirm the assay call for `Cc1ccc(C)c(NC(=O)C(=O)CC(=O)c2cccc3ccccc23)c1` ?
output: inactive

input: Field: outcome | Entry: CC1(C)OC(=O)C(=C2CC(c3ccccc3)c3ccccc32)C(=O)O1 (stereo not drawn)
output: inactive

input: In this assay, the call recorded for `Nc1cc(N)c(/N=N/c2cccc3c(S(=O)(=O)O)cccc23)cc1/N=N/c1cc([N+](=O)[O-])ccc1O` was what?
output: inactive

input: Hi team, can someone confirm the assay call for `N=c1oc2c(Cl)cc(Cl)cc2cc1C(=O)Nc1cccc2ccccc12` ?
output: inactive

input: Just curious, what result did `COc1c(C=O)c2c(c(OC)c1OC)-c1ccc(OC)c(=O)cc1[C@@H](NC(C)=O)CC2` get here?
output: active

input: Test call, this molecule: `O=C(/C=C\c1cccc2ccccc12)c1ccc(Cl)cc1Cl`
output: inactive

input: What was the test verdict on `CC(=O)Nc1nc(C)c(S(=O)(=O)NC(=O)N2c3ccccc3CCc3ccccc32)s1` ?
output: inactive

input: Can you look up the reported call for `S=C1ON=C(c2ccccc2)/C1=C/Nc1ccccc1` for me?
output: inactive

----------
# Test system: Hs-578T
# PROTOCOL TEXT: NCI tumour cell line growth inhibition, 48 h
Active and inactive are the calls of the source. Cut-off read from the data, not from the text of the source: active = GI50 up to about 1.1 µM and inactive = higher.
Classes to choose from: label 1 (active), label 0 (inactive)

Illustrative cases are given below, each with its answer.
COMPOUND	GROUP
CC(C)(C)OC(=O)NC(CCCCNC(=O)OCc1ccccc1)C(=O)NCCNc1ccc(NCCNC(=O)C(CCCCNC(=O)OCc2ccccc2)NC(=O)OC(C)(C)C)c2c1C(=O)c1ccccc1C2=O (stereo not drawn)	label 0
O=C1C[C@@H](Sc2ccccc2)C2(OCCO2)C2ON3CCCC[C@H]3[C@H]12 (stereo partly drawn)	label 0
c1ccc2c(c1)nnn2CN1CCOCC1	label 0
CCN(CC)CCCNc1ccc2ncn3c4ccc(O)cc4c(=O)c1c23	label 1
CC1OC(OC2C(CO)OC(O[C@H]3CC[C@@]4(C)C(=CC[C@H]5[C@@H]6C[C@@H]7O[C@](O)(CC[C@H](CO)COC8OC(CO)C(O)C(O)C8O)[C@@H](C)[C@@H]7[C@@]6(C)CC[C@@H]54)C3)C(OC3OC(C)C(O)C(O)C3O)C2O)C(O)C(O)C1O (stereo partly drawn)	label 0
O=C(/C=C/c1ccc(Cl)c(Cl)c1)Oc1ccc(/C=C2\CCCCC2=O)cc1	label 0

input: Returns: the outcome recorded for CCCCCCCCCCCCCCCCCCNc1ccn(C2OC(CO)C(O)C2O)c(=O)n1 (stereo not drawn) in this assay.
output: label 0

input: I'd appreciate the recorded outcome for `NC(=O)c1ccc(NCC2=CC(=O)C=CC2=O)cc1` from this test.
output: label 0

input: So what was the verdict on `COC(=O)CCc1c(Cc2ccc[nH]2)[nH]c(C(=O)OCc2ccccc2)c1C` in this test?
output: label 0

input: Outcome logged for COC(=O)CCC(=O)c1ccc2c(c1)CC1(C2)Cc2ccc3c(c2C1)CCCC3=O (stereo not drawn) in this assay:
output: label 0

input: Write down the call the test reported for this compound. Item: C=C(C)C(=O)O[C@H]1CC2(CO)O[C@@H]2CC/C(COC(C)=O)=C/C2OC(=O)C(=C)[C@@H]21 (stereo partly drawn)
output: label 0

----------
# Test system: HOP-92
# PROTOCOL TEXT: NCI tumour cell line growth inhibition, 48 h
The source made the active and inactive calls. Rule as the data show it: active = GI50 up to about 1.1 µM and inactive = higher.
Just give me one of these, please: active, inactive

Consider the worked cases shown below.
COMPOUND	TARGET OR SYSTEM	GROUP
C#CCOC(=O)C(N)C(C)O (stereo unspecified)	HOP-92	inactive
COC(=O)C1=C(C(=O)OC)C2=S(SC3=C2CCCC3)S1 (stereo unspecified)	HOP-92	inactive
CC[N+]1(C)CCC(O)(c2ccc(Cl)cc2)C(C(=O)c2ccc(Cl)cc2)C1 (stereo unspecified)	HOP-92	inactive

input: Please indicate how the test categorized `O=C1N[C@@H](c2c[nH]c3ccc(Br)cc23)C(=O)N[C@H]1c1c[nH]c2ccc(Br)cc12` .
output: inactive

input: Tell me the recorded outcome of this test for N#CC(/C(CCCC(=O)Nc1cccc([N+](=O)[O-])c1)=N\NC(=O)c1c(O)ccc2ccccc12)c1nc2ccccc2s1 (stereo unspecified) .
output: inactive

input: Which result was noted for this compound in the test: `O=C(Nn1c(-c2ccccc2)nc2ccccc2c1=O)c1cccc([N+](=O)[O-])c1`
output: inactive

input: Query: recorded result category for `COc1c2ccccc2c(OC)c2nc(C)ccc12` in this test
output: inactive

input: Check the results log: what was the call for `CSC(=S)N/N=C/c1nccc2ccccc12` ?
output: inactive

input: Entry `CC1=[N+]([O-])C(C)(C)N(O)C1(C)C` : call = ?
output: inactive

input: Could you check what this test reported for O=C(c1cccnc1)N1N=C(c2ccc3c(c2)OCO3)CC1(O)c1cc(F)c(Cl)cc1Cl (stereo unspecified) ?
output: inactive

----------
# Test system: NCI-H226
# PROTOCOL TEXT: NCI tumour cell line growth inhibition, 48 h
The source made the active and inactive calls. Cut-off read from the data, not from the text of the source: active = GI50 up to about 1.1 µM and inactive = higher.
The reply should name one outcome from active, inactive

MOLECULE	GROUP
Nc1ccc(Cc2ccc(N)c(C(=O)O)c2)cc1C(=O)O	inactive
CC1CN=C(NCc2ccccc2)S1 (configuration not stated)	inactive
C#CCCCC(=O)N(C(=O)C[S+]([O-])CC)c1ccccc1 (configuration not stated)	inactive
CC(C)(C)OC(=O)N1Cc2cc(O)ccc2C[C@H]1C(=O)O	inactive

input: Look up the recorded call for `O=C(O)c1nc2ccccc2nc1Nc1ccc(Cl)c(Cl)c1` in this test.
output: inactive

input: For this molecule, state the assay outcome: `N=c1oc2c(Cl)cc(Cl)cc2cc1C(=O)Nc1cccc2ccccc12`
output: inactive

input: How did this test come out for COc1ccc(C2S/C(=C\c3cccc([N+](=O)[O-])c3)C(=O)N2NC(=O)Cc2ccccc2)cc1 (configuration not stated) ?
output: inactive

input: Which outcome did this test record for the molecule `Cn1c2ccccc2c2[nH]cc3nc4ccccc4c-3c21` ?
output: inactive

input: Hey, what did the test say about `COc1ccc2nc3ccccc3c(NCCCN(C)CCCl)c2c1` ?
output: active

----------
Kindly state GI50 for each of the entries shown.
# Test system: SNB-75
# PROTOCOL TEXT: NCI tumour cell line growth inhibition, 48 h
Active and inactive are the calls of the source. Cut-off read from the data, not from the text of the source: active = GI50 up to about 1.1 µM and inactive = higher.

COMPOUND	GI50
O=[N+]([O-])c1cc2c(c3nonc13)OCCCCO2	10.6 µM (inactive)
CCCC(O)[C@@H](O)c1ccc2c(c1O)C(=O)c1c(OC)cccc1C2=O (some centres undefined)	47 µM (inactive)
COC1(OC)N=C(N)C2(C#N)C(C)=C3NCN(C)N=C3C12C#N (centres undefined)	> 100 µM (inactive)

According to the records, this compound C=C(C)C(O)C(O)c1c(OC)ccc2ccc(=O)oc12 (centres undefined) displays GI50 of > 100 µM (inactive)

----------
I'd be grateful if you could share measured GI50 for these entries.
# System: SF-268
# PROTOCOL TEXT: NCI tumour cell line growth inhibition, 48 h
Calls of active or inactive are those of the source. No stated cut-off is given here; in the data, active = GI50 up to about 1.1 µM and inactive = higher.

COMPOUND	QUANTITY KIND	RESULT
C#CCOC(=O)c1ccc(OC(C)=O)cc1	GI50	> 100 µM (inactive)
O=C(c1cccs1)N(C(=O)N1CCCCC1)c1ccccc1	GI50	> 100 µM (inactive)
CC(C)(C)OC(=O)N1Cc2cc(O)ccc2C[C@H]1C(=O)O	GI50	> 100 µM (inactive)

Parameters: items (list). Returns: GI50 for each item.
1. C[C@@H]1O[C@@H]2OCC[C@@H]2C2=C1C(=O)c1ccccc1C2=O
2. CC1(C)OC(=O)C(=C2CC(c3ccccc3)c3ccccc32)C(=O)O1 (centres undefined)
3. CC1OC(OC2C(CO)OC(O[C@H]3CC[C@@]4(C)C(=CC[C@H]5[C@@H]6C[C@@H]7O[C@](O)(CC[C@H](CO)COC8OC(CO)C(O)C(O)C8O)[C@@H](C)[C@@H]7[C@@]6(C)CC[C@@H]54)C3)C(OC3OC(C)C(O)C(O)C3O)C2O)C(O)C(O)C1O (some centres undefined)
4. CCCCCC(=O)Nc1[nH]nnc1C#N
5. COC(=O)NC(Cc1ccccc1)NC(C)=O (centres undefined)

output:
4.97 µM (inactive)
> 100 µM (inactive)
> 100 µM (inactive)
> 100 µM (inactive)
> 100 µM (inactive)

// each compound listed below needs its GI50
1. O=C(NC1CCCCC1)c1cc2ccccc2cc1O
2. C#CCCCC(=O)N(C(=O)C[S+]([O-])CC)c1ccccc1 (centres undefined)
3. CC(=O)CC(O)(C(F)(F)Cl)C(F)(Cl)Cl (centres undefined)
4. C=CC(C)(C)n1cc(C2=C(O)C(=O)C(c3c(CC=C(C)C)[nH]c4ccccc34)=C(O)C2=O)c2ccccc21
5. COc1ccc(CNc2ccn(C3OC(CO)C(O)C3O)c(=O)n2)cc1 (centres undefined)

output:
1: 46.1 µM (inactive); 2: > 100 µM (inactive); 3: > 10 µM (inactive); 4: 0.548 µM (active); 5: > 100 µM (inactive)

List GI50 for every entry below, keeping the order given.
1. CC1CN=C(NCc2ccccc2)S1 (centres undefined)
2. c1cc2c(cc1NC1=NCCO1)CCCC2
3. CCCc1c(OC)c(=O)c2c(OC)cc(OC)c3c4c(OC)cc(OC)c5c(=O)c(OC)c(CCC)c(c1c23)c54
4. COc1ccc2c(c1)c1nn(CCN(C)C)c3ccc4c(=O)n(CCN(C)C)c(=O)n2c4c13
5. CC(C)(C)NCC(COc1ccc([N+](=O)[O-])cc1)OP(c1ccccc1)c1ccccc1 (centres undefined)
6. N=c1oc2c(Cl)cc(Cl)cc2cc1C(=O)Nc1cccc2ccccc12

output:
1: > 100 µM (inactive); 2: 5.56 µM (inactive); 3: 16.1 µM (inactive); 4: < 0.01 µM (active); 5: 49.1 µM (inactive); 6: 18 µM (inactive)

Parameter requested: GI50. Apply to each item below.
1. Cc1cc(S(=O)(=O)n2ccnc2O)c(SCCCN(C)C)cc1Cl
2. CC1(C)CC(=O)C2=C(C1)NC(=S)C(C#N)C2c1ccccc1 (centres undefined)
3. CCOC(=O)/C=C1\CCCC12OCCO2
4. CCC1CCCCN1CC(C(C)=O)C(c1ccccc1)c1c(O)c2ccccc2oc1=O (centres undefined)
5. Cn1nnc2c(C(N)=O)ncn2c1=O [TEMOZOLOMIDE]

output:
1: > 100 µM (inactive); 2: > 100 µM (inactive); 3: > 100 µM (inactive); 4: > 100 µM (inactive); 5: > 100 µM (inactive)

Measured values drawn from ChEMBL document CHEMBL1201862 for this set.
